ASSAY EXPLANATION: Solubility of the active in lipophilic vehicles at 25° C., HPLC method
TEST CONTEXT: oil or lipid, in Dimethicone 100 silicone oil
OBSERVABLE: solubility

The molecule listed as COc1ccc2c(c1)[C@]13CCCC[C@@H]1[C@H](C2)N(C)CC3 has a reported solubility of < 1 µg/mL

====

ASSAY EXPLANATION: Solubility of the active in lipophilic vehicles at 25° C., HPLC method
TEST CONTEXT: oil or lipid, in soya oil
OBSERVABLE: solubility

Per the records, this molecule ( COc1ccc2c(c1)[C@]13CCCC[C@@H]1[C@H](C2)N(C)CC3 ) has solubility equal to ~6 µg/mL

FYI, the data here is from patent US20060233873A1.
